- STUDY_SYSTEM: pT7_6His-AlfaTag-HOXD13 (human, UniProt P35453 263-343)
- Sequence (P35453 263-343): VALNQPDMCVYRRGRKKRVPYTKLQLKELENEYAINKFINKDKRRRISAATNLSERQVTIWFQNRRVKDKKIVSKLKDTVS
- TEST_NAME: PADIT-seq
- CONDITION: dsDNA, one strand shown
READOUT_TYPE: binding signal (log2FC)

- CTCGAGGATATCAAGATCTGGCCTCGGCTCTGTAAAAGGAACCTCTAGCTAGCCGACTCACTATAGGGATAATCGCCCTGAGCAAAGACC: 1.83
- CTCGAGGATATCAAGATCTGGCCTCGGCGCAATAAAAGGAACCTCTAGCTAGCCGACTCACTATAGGGATAATCGCCCTGAGCAAAGACC: 2.76
- CTCGAGGATATCAAGATCTGGCCTCGGCCTTTTAGACGGAACCTCTAGCTAGCCGACTCACTATAGGGATAATCGCCCTGAGCAAAGACC: -0.199
- CTCGAGGATATCAAGATCTGGCCTCGGCCTCTTAAAAGGAACCTCTAGCTAGCCGACTCACTATAGGGATAATCGCCCTGAGCAAAGACC: 2.2
- CTCGAGGATATCAAGATCTGGCCTCGGCTAGCCACGCGGAACCTCTAGCTAGCCGACTCACTATAGGGATAATCGCCCTGAGCAAAGACC: -1.07
- CTCGAGGATATCAAGATCTGGCCTCGGCTAACTAAAAGGAACCTCTAGCTAGCCGACTCACTATAGGGATAATCGCCCTGAGCAAAGACC: -0.24
- CTCGAGGATATCAAGATCTGGCCTCGGCTTTTTACCCGGAACCTCTAGCTAGCCGACTCACTATAGGGATAATCGCCCTGAGCAAAGACC: -0.11
- CTCGAGGATATCAAGATCTGGCCTCGGCCTTTTAGTCGGAACCTCTAGCTAGCCGACTCACTATAGGGATAATCGCCCTGAGCAAAGACC: -0.369
- CTCGAGGATATCAAGATCTGGCCTCGGCCGCCCAGAAGGAACCTCTAGCTAGCCGACTCACTATAGGGATAATCGCCCTGAGCAAAGACC: -1.09
- CTCGAGGATATCAAGATCTGGCCTCGGCTTTATAAAAGGAACCTCTAGCTAGCCGACTCACTATAGGGATAATCGCCCTGAGCAAAGACC: 2.35
- CTCGAGGATATCAAGATCTGGCCTCGGCGTGCTAAAAGGAACCTCTAGCTAGCCGACTCACTATAGGGATAATCGCCCTGAGCAAAGACC: -0.142
- CTCGAGGATATCAAGATCTGGCCTCGGCTTTTTAGGTGGAACCTCTAGCTAGCCGACTCACTATAGGGATAATCGCCCTGAGCAAAGACC: -0.0749
- CTCGAGGATATCAAGATCTGGCCTCGGCATTTTACTCGGAACCTCTAGCTAGCCGACTCACTATAGGGATAATCGCCCTGAGCAAAGACC: 0.755
- CTCGAGGATATCAAGATCTGGCCTCGGCCTTTTATACGGAACCTCTAGCTAGCCGACTCACTATAGGGATAATCGCCCTGAGCAAAGACC: 2.32
- CTCGAGGATATCAAGATCTGGCCTCGGCATTTTATTGGGAACCTCTAGCTAGCCGACTCACTATAGGGATAATCGCCCTGAGCAAAGACC: 3.32
- CTCGAGGATATCAAGATCTGGCCTCGGCTTTTTATTGGGAACCTCTAGCTAGCCGACTCACTATAGGGATAATCGCCCTGAGCAAAGACC: 3.26
- CTCGAGGATATCAAGATCTGGCCTCGGCCCCTGGGCGGGAACCTCTAGCTAGCCGACTCACTATAGGGATAATCGCCCTGAGCAAAGACC: -0.981
- CTCGAGGATATCAAGATCTGGCCTCGGCTTTTTAAGAGGAACCTCTAGCTAGCCGACTCACTATAGGGATAATCGCCCTGAGCAAAGACC: 2.84
- CTCGAGGATATCAAGATCTGGCCTCGGCGGATTAAAAGGAACCTCTAGCTAGCCGACTCACTATAGGGATAATCGCCCTGAGCAAAGACC: 1.17
- CTCGAGGATATCAAGATCTGGCCTCGGCTAGATAAAAGGAACCTCTAGCTAGCCGACTCACTATAGGGATAATCGCCCTGAGCAAAGACC: 0.188
- CTCGAGGATATCAAGATCTGGCCTCGGCCTTTTAGAAGGAACCTCTAGCTAGCCGACTCACTATAGGGATAATCGCCCTGAGCAAAGACC: 0.357
- CTCGAGGATATCAAGATCTGGCCTCGGCATTTTATATGGAACCTCTAGCTAGCCGACTCACTATAGGGATAATCGCCCTGAGCAAAGACC: 3.31
- CTCGAGGATATCAAGATCTGGCCTCGGCTTTTTAGCGGGAACCTCTAGCTAGCCGACTCACTATAGGGATAATCGCCCTGAGCAAAGACC: -0.0861
- CTCGAGGATATCAAGATCTGGCCTCGGCAGACTAAAAGGAACCTCTAGCTAGCCGACTCACTATAGGGATAATCGCCCTGAGCAAAGACC: -0.679
- CTCGAGGATATCAAGATCTGGCCTCGGCTATTGGGCGGGAACCTCTAGCTAGCCGACTCACTATAGGGATAATCGCCCTGAGCAAAGACC: -0.163
- CTCGAGGATATCAAGATCTGGCCTCGGCTGGATAAAAGGAACCTCTAGCTAGCCGACTCACTATAGGGATAATCGCCCTGAGCAAAGACC: -0.165
- CTCGAGGATATCAAGATCTGGCCTCGGCTCTCTAAAAGGAACCTCTAGCTAGCCGACTCACTATAGGGATAATCGCCCTGAGCAAAGACC: 0.412
